subject_of_test: hMAGL (Homo sapiens, UniProt Q99685)
Rule: measured IC50 below 70 nM gets YES; anything equal to or greater than 70 nM gets NO.

Examples from the recorded data:
Cc1nn(CC(F)(F)F)cc1CN1CC2(C1)CN(C(=O)N1CC3(CC(n4cnc(C5CC5)n4)C3)C1)C2
NO
Cc1cc(C(F)(F)F)n(CC2CC3(C2)CN(C(=O)N2CC4(CC(n5cnc(C6(O)CC6)n5)C4)C2)C3)n1
NO

Lab note: IC50 threshold 70 nM. Does this compound come in strictly under it? O=C(N1CC2(CC(n3cnc(C(F)(F)F)n3)C2)C1)N1CC2(CN(Cc3nc(C(F)(F)F)co3)C2)C1
NO

Lab note: IC50 threshold 70 nM. Does this compound come in strictly under it? Cc1nc(C)c(CN2CC3(C2)CN(C(=O)N2CC4(CC(n5cnc(C6CC6)n5)C4)C2)C3)s1
YES

Lab note: IC50 threshold 70 nM. Does this compound come in strictly under it? O=C(N1CC2(CC(Oc3cnn(CC(F)(F)F)c3)C2)C1)N1CC2(CC(n3cnc(C4CC4)n3)C2)C1
YES

Lab note: IC50 threshold 70 nM. Does this compound come in strictly under it? O=C(N1CC2(CC(n3cnc(C4CC4)n3)C2)C1)N1CC2(CN(Cc3cnc(C(F)(F)F)o3)C2)C1
YES

Lab note: IC50 threshold 70 nM. Does this compound come in strictly under it? Cc1onc(C2CC2)c1CN1CC2(C1)CN(C(=O)N1CC3(CC(n4cnc(C5CC5)n4)C3)C1)C2
YES

###

subject_of_test: hMAGL (Homo sapiens, UniProt Q99685)
Sequence (Q99685 1-303): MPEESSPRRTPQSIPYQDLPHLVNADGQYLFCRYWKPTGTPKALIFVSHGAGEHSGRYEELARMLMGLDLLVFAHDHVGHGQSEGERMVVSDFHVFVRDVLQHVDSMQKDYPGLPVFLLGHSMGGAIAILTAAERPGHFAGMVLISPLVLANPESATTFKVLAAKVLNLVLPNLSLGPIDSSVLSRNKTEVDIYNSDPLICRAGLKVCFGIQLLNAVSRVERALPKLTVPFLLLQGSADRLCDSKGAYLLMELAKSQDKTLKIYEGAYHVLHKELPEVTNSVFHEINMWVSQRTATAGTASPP
pIC50: −log10 of the molar value.
Param threshold (8) applies to pIC50; output satisfied when value >= threshold, not satisfied when value < threshold.

Examples from the recorded data:
O=C(N1CC2(CC(n3cnc(C(F)(F)F)n3)C2)C1)N1CC2(CN(Cc3cnc(C(F)(F)F)o3)C2)C1
not satisfied
O=C(N1CC2(CC(Cc3ncn(CC(F)(F)F)n3)C2)C1)N1CC2(CC(n3cnc(C4CC4)n3)C2)C1
satisfied
O=C(N1CC2(CC(Oc3cnn(CC(F)(F)F)c3)C2)C1)N1CC2(CC(c3cc(C4CC4)n[nH]3)C2)C1
not satisfied
O=C(N1CC2(CC(Cc3cn(CC(F)(F)F)nc3C(F)(F)F)C2)C1)N1CC2(CC(n3cnc(C(F)(F)F)n3)C2)C1
satisfied
Cn1ncc(CN2CC3(C2)CN(C(=O)N2CC4(CC(n5cnc(C6CC6)n5)C4)C2)C3)c1C(F)(F)F
satisfied

Turning to the following molecule.
API: above_or_equal(metric=pIC50, cutoff=8) for item O=C(N1CC2(CC(n3cnc(C4CC4)n3)C2)C1)N1CC2(CN(Cc3nnnn3CC(F)(F)F)C2)C1
not satisfied

###

subject_of_test: hMAGL (Homo sapiens, UniProt Q99685)
attribute_measured: IC50
Please state the value followed by its unit.

Use the examples below as a reference point.
O=C(N1CC2(CCN(Cc3cc(C(F)(F)F)no3)CC2)C1)N1CC2(CC(n3cnc(C4CC4)n3)C2)C1 [Example 329]
0.0139 µM
O=C(N1CC2(CC(Cn3cnc(C4(C(F)(F)F)CC4)n3)C2)C1)N1CC2(CC(n3cnc(C4(O)CC4)n3)C2)C1 [Example 75]
0.00762 µM
O=C(N1CC2(CC(Cc3cnn(CC(F)(F)F)c3)C2)C1)N1CC2(CC(n3cnc(C4(O)CC4)n3)C2)C1 [Example 291]
0.0108 µM

We now examine a further compound.
For the compound O=C(N1CC2(CC(Cn3ncnc3C(F)(F)F)C2)C1)N1CC2(CC(n3cnc(C(F)(F)F)n3)C2)C1 [Example 333] , the measured IC50 on hMAGL (Homo sapiens, UniProt Q99685) was 0.0103 µM

###

Sequence of the target: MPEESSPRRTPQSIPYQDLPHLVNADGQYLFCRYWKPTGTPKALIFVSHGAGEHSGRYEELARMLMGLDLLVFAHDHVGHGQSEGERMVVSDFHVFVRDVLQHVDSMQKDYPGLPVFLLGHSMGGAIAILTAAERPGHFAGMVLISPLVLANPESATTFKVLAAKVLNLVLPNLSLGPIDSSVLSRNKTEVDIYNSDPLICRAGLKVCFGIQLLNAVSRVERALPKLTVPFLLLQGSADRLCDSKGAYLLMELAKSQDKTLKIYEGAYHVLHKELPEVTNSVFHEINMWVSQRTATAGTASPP
attribute_measured: IC50 (µM)
Number in µM, nothing else.

Use the examples below as a reference point.
CC(F)(F)c1noc(CN2CC3(C2)CN(C(=O)N2CC4(CC(n5cnc(C6CC6)n5)C4)C2)C3)n1
0.00892
Cc1cc(C(F)(F)F)nn1CC1CC2(C1)CN(C(=O)N1CC3(CC(n4cnc(C(F)(F)F)n4)C3)C1)C2
0.0058
CC(C)(C)c1csc(CN2CC3(C2)CN(C(=O)N2CC4(CC(n5cnc(C6CC6)n5)C4)C2)C3)n1
0.00064
O=C(N1CC2(CC(Cc3cn(CC(F)(F)F)nn3)C2)C1)N1CC2(CC(n3cnc(C4(O)CC4)n3)C2)C1
0.0449
O=C(N1CC2(CC(n3cnc(C4CC4)n3)C2)C1)N1CC2(CN(Cc3nccn3CC(F)(F)F)C2)C1
0.0413

We now examine a further molecule.
molecule O=C(N1CC2(CC(n3cnc(C4(O)CC4)n3)C2)C1)N1CC2(CN(Cc3snnc3C3CCC3)C2)C1 , IC50 observed: 0.0229

###

subject_of_test: hMAGL (Homo sapiens, UniProt Q99685)
Sequence (Q99685 1-303): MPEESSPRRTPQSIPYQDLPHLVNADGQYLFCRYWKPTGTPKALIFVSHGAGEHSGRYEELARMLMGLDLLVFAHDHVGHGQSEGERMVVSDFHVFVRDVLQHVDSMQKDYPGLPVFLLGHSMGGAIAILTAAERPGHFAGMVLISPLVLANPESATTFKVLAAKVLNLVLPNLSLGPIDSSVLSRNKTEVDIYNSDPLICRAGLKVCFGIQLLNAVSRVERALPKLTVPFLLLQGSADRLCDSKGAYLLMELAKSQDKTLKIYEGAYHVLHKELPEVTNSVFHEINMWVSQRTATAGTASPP
Rule: measured IC50 below 10 nM gets satisfied; anything equal to or greater than 10 nM gets not satisfied.

Examples from the recorded data:
O=C(N1CC2(CC(Cc3nc(C(F)(F)F)no3)C2)C1)N1CC2(CC(n3cnc(C4(O)CC4)n3)C2)C1 [Example 138]
not satisfied
O=C(N1CC2(CC(Cc3cc(C(F)(F)F)nn3CC(F)(F)F)C2)C1)N1CC2(CC(n3cnc(C(F)(F)F)n3)C2)C1 [Example 140]
satisfied
Cn1ncc(CN2CC3(C2)CN(C(=O)N2CC4(CC(n5cnc(C(F)(F)F)n5)C4)C2)C3)c1C(F)(F)F [Example 164]
not satisfied

Lab note: IC50 threshold 10 nM. Does this compound come in strictly under it? O=C(N1CC2(CC(n3cnc(C(F)(F)F)n3)C2)C1)N1CC2(CN(Cc3nc(C(F)(F)F)cs3)C2)C1 [Example 51]
not satisfied

Lab note: IC50 threshold 10 nM. Does this compound come in strictly under it? CCc1nsc(CN2CC3(C2)CN(C(=O)N2CC4(CC(n5cnc(C(F)(F)F)n5)C4)C2)C3)n1 [Example 286]
not satisfied

Lab note: IC50 threshold 10 nM. Does this compound come in strictly under it? O=C(N1CC2(CC(Cc3nc(C(F)(F)F)ns3)C2)C1)N1CC2(CC(n3cnc(C4CC4)n3)C2)C1 [Example 16]
satisfied

Lab note: IC50 threshold 10 nM. Does this compound come in strictly under it? O=C(N1CC2(CC(n3cnc(C4CC4)n3)C2)C1)N1CC2(CN(Cc3ccn(C(F)(F)F)n3)C2)C1 [Example 117]
not satisfied

Lab note: IC50 threshold 10 nM. Does this compound come in strictly under it? Cn1cnc(C#N)c1CN1CC2(C1)CN(C(=O)N1CC3(CC(n4cnc(C5(O)CC5)n4)C3)C1)C2 [Example 282]
not satisfied

Lab note: IC50 threshold 10 nM. Does this compound come in strictly under it? O=C(N1CC2(CCN(Cc3cc(C(F)(F)F)[nH]n3)CC2)C1)N1CC2(CC(n3cnc(C4CC4)n3)C2)C1 [Example 29]
satisfied
